Reference source: PubChem BioAssay (NCI)

Test system: TK-10 renal
Test: NCI tumour cell line growth inhibition, 48 h
reported property: GI50

Record excerpt, results attached:
{"compound": "COc1ccccc1OCC(O)CO (stereo not given)", "reported property": "GI50", "reading": "> 100 µM"}
{"compound": "CC1=CC(=O)c2[nH]c3ccccc3c2C1=O", "reported property": "GI50", "reading": "5.04 µM"}
{"compound": "NC(=NC1C2CC3CC(C2)CC1C3)Nc1ccc(I)cc1 (stereo not given)", "reported property": "GI50", "reading": "2.59 µM"}

State recorded GI50 for all listed compounds.
1. CC(Cl)CC(=O)Nc1ccc2c(c1)oc(=O)c1cc(NC(=O)CC(C)Cl)ccc12 (stereo not given)
2. Nc1ncnc2c(C3OC(CO)C(O)C3O)c[nH]c12 (stereo not given)

10.1 µM
0.0163 µM
